testName: Solubility determination of ziprasidone in pH 7.4 PBS (shaken vials, HPLC)
Format: physicochemical
conditionInfo: Dulbecco's phosphate-buffered saline (PBS), aqueous buffer, thermodynamic from solid, time point 6 hours, concentration of ziprasidone in solution
observable: solubility at 6 h (µg/mL)

O=C1Cc2cc(CCN3CCN(c4nsc5ccccc45)CC3)c(Cl)cc2N1 [Ziprasidone Free Base] = 0.2

###

testName: Solubility determination of ziprasidone in pH 7.4 PBS (shaken vials, HPLC)
Type: physicochemical
conditionInfo: Dulbecco's phosphate-buffered saline (PBS), aqueous buffer, thermodynamic from solid, time point 15 minutes, concentration of ziprasidone in solution
Where a name gives a salt, the structure may show the parent alone.
observable: solubility at 15 min (µg/mL)

O=C1Cc2cc(CCN3CCN(c4nsc5ccccc45)CC3)c(Cl)cc2N1 [Ziprasidone Mesylate] = 1.5
